ASSAY_SYSTEM: HLA-B*0702 (human)
ASSAY_NOTES: competition with 125I-labeled standard peptide for purified HLA, gel filtration
ENDPOINT_NAME: binding affinity ratio (IC50 of standard peptide / IC50 of test peptide)
Form field (numeric): enter value without unit.

BINDER: WPYLHNRLV (modifications not checked)
OBSERVED_VALUE: 0.052
//
BINDER: WPYLHNRLVV (modifications not checked)
OBSERVED_VALUE: 0.095
//
BINDER: DPQERPRKL (modifications not checked) [HPV16 E6 11 …]
OBSERVED_VALUE: 0.0001

// query Name the recorded binding affinity ratio (IC50 of standard peptide / IC50 of test peptide) of the item PPKLRSTAA (modifications not checked) [HPV16 E1 309 …] in your answer.
// result 0.0014

// query Name the recorded binding affinity ratio (IC50 of standard peptide / IC50 of test peptide) of the item LPQLCTEL (modifications not checked) [HPV16 E6 19 LPQLCTEL] in your answer.
// result 0.0055

// query Name the recorded binding affinity ratio (IC50 of standard peptide / IC50 of test peptide) of the item EPPKLRSTAA (modifications not checked) [HPV16 E1 308 …] in your answer.
// result 0.0002
